Tested on: A431
Experiment: LBPA endosome anti-LBPA integrated intensity (sum per cell), Z-score; higher = more LBPA staining
Settings: compound concentration in added solution (µM; 5 µl added to 20 µl cells): 10; 18 h
Counter-ions that a name gives are not always drawn.
Would you kindly list LBPA endosome anti-LBPA integrated intensity (z-score) for each of these compounds?
Please reply with the value in numeric form only.

Fetch value of LBPA endosome anti-LBPA integrated intensity (z-score) on A431 for CC1CC(OC(=O)c2ccccc2O)CC(C)(C)C1 (centres undefined) [Homosalate] .
-0.265

GET LBPA endosome anti-LBPA integrated intensity (z-score) | system: A431 | item: Cc1ccccc1OCC(O)CO (centres undefined)
-0.324

Specify LBPA endosome anti-LBPA integrated intensity (z-score) for CC1=C(CC(=O)O)c2cc(F)ccc2/C1=C\c1ccc([S+](C)[O-])cc1 (centres undefined) , system A431.
-0.696

Provide measured LBPA endosome anti-LBPA integrated intensity (z-score) on A431 for CCCCC(CC)CN1CN(CC(CC)CCCC)CC(C)(N)C1 (centres undefined) please.
0.287

Param request: LBPA endosome anti-LBPA integrated intensity (z-score) | system A431 | item `Cc1c(NC(=O)c2cccnc2)c(=O)n(-c2ccccc2)n1C`
-0.531

State, for A431, measured LBPA endosome anti-LBPA integrated intensity (z-score) of the compound listed here: O=C1NCC2(CCN(CCc3ccccc3)CC2)O1 [Fenspiride hydrochloride]
-0.609

# return LBPA endosome anti-LBPA integrated intensity (z-score) for `C=CC1=C(C(=O)O)N2C(=O)[C@@H](NC(=O)/C(=N\OCC(=O)O)c3csc(N)n3)[C@H]2SC1` , test system: A431
-0.497

Look up and report LBPA endosome anti-LBPA integrated intensity (z-score), with A431 as system, for Cc1ccc(S(=O)(=O)NC(=O)NN2CC3CCCC3C2)cc1 (centres undefined) [Gliclazide]
-0.621

Find the measured LBPA endosome anti-LBPA integrated intensity (z-score) of `C[C@H]1NC(=O)NC1=O` with A431 as test system.
-0.487

Report measured LBPA endosome anti-LBPA integrated intensity (z-score) on A431; entry: CC(CN(C)C)CN1c2ccccc2Sc2ccccc21 (centres undefined) [Trimeprazine tartrate]
3.47

Write down measured LBPA endosome anti-LBPA integrated intensity (z-score) (A431) for this compound. CC(=O)N(CC(O)CN(C(C)=O)c1c(I)c(C(=O)NCC(O)CO)c(I)c(C(=O)NCC(O)CO)c1I)c1c(I)c(C(=O)NCC(O)CO)c(I)c(C(=O)NCC(O)CO)c1I (centres undefined)
-0.538

Fill: LBPA endosome anti-LBPA integrated intensity (z-score) (A431) for this compound CN(C)C(=N)NC(=N)N [Metformin hydrochloride]
-0.525

GET LBPA endosome anti-LBPA integrated intensity (z-score) | system: A431 | item: CCn1cc(C(=O)O)c(=O)c2cc(F)c(N3CCNC(C)C3)c(F)c21 (centres undefined) [Lomefloxacin hydrochloride]
-0.676

Please report the measured LBPA endosome anti-LBPA integrated intensity (z-score) for `O=C(O)CN(CCN(CC(=O)O)CC(=O)O)CCN(CC(=O)O)CC(=O)O` tested on A431.
-0.425

Specify LBPA endosome anti-LBPA integrated intensity (z-score) for NC(=O)c1cnccn1 [Pyrazinamide] , system A431.
-0.586

Quote LBPA endosome anti-LBPA integrated intensity (z-score) with test system A431 for Cc1ccsc1/C=C/C1=NCCCN1C [Morantel tartrate]
-0.53

GET LBPA endosome anti-LBPA integrated intensity (z-score) | system: A431 | item: COc1cc2nc(N3CCN(C(=O)C4CCCO4)CC3)nc(N)c2cc1OC (centres undefined) [Terazosin hydrochloride]
-0.178

# lookup: A431 LBPA endosome anti-LBPA integrated intensity (z-score), key = CNCC[C@@H](Oc1ccccc1C)c1ccccc1 [Tomoxetine hydrochloride]
-0.073

GET LBPA endosome anti-LBPA integrated intensity (z-score) | system: A431 | item: `Nc1nnc(-c2cccc(Cl)c2Cl)c(N)n1`
-0.222

Print A431 LBPA endosome anti-LBPA integrated intensity (z-score) for CN(C)CCN(Cc1cccs1)c1ccccn1 [Methapyrilene hydrochloride] .
-0.506

# return LBPA endosome anti-LBPA integrated intensity (z-score) for CC(=O)O[C@H]1C[C@@H]2CC[C@@H]3[C@H](CC[C@@]4(C)[C@H]3C[C@H]([N+]3(C)CCCCC3)[C@@H]4OC(C)=O)[C@@]2(C)C[C@@H]1N1CCCCC1 [Vecuronium bromide] , test system: A431
-0.413

Give A431 LBPA endosome anti-LBPA integrated intensity (z-score) for the following compound: `Cc1cnc(NC(=O)C2=C(O)c3ccccc3S(=O)(=O)N2C)s1`
-0.49

Send back A431 LBPA endosome anti-LBPA integrated intensity (z-score) of Cc1ncc([N+](=O)[O-])n1CC(O)CCl (centres undefined) only.
-0.468

Check A431 data and give LBPA endosome anti-LBPA integrated intensity (z-score) for `CCCc1nn(C)c2c(=O)[nH]c(-c3cc(S(=O)(=O)N4CCN(C)CC4)ccc3OCC)nc12` .
-0.41
